# subject of test: T1, human CD300LB on primary human macrophages (human, UniProt A8K4G0 18-201)
# T1 sequence: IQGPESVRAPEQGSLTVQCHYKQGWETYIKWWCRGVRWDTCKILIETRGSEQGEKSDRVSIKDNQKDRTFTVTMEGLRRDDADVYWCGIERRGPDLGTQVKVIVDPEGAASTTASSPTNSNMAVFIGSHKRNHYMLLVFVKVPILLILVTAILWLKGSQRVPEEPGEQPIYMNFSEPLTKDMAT
# measurement description: flow cytometry, primary human macrophages donor 1278, 10 ug/mL antibody, isotype control subtracted
readout type: gMFI (gMFI)
State the answer as a number, implicitly in gMFI.

Prompt: Value lookup for gMFI; key = anti-CD300LB antibody CD-08 (antibody, V domains shown) VH: EVQLLESGGGLVQPGGSLRLSCAASGFTFSNAWMSWVRQAPGKGLEWVSVISGSGGRTYYADSVKGRFTISRDNSKNTLYLQMNSLRAEDTAVYYCARDGTTVAPKGMDVWGQGTTVTVSS VL: DIQMTQSPSSLSASVGDRVTITCQASQDINNYVNWYQQKPGKAPKLLIYAASNLQSGVPSRFSGSGSGTDFTLTISSLQPEDFATYYCQQSYSPPYTFGQGTKLEIK
Response: 135000

All figures here come from patent US20240254227A1.
